Each item that follows carries a reported GI50.
test system: NCI-H1650; test: Modified cell proliferation assay (CellTiter-Glo), NCI-H1650; type: cell-based; conditions: Homo sapiens, NCI-H1650; modified protocol, 384-well, 300 cells per well, 120 h; highest concentration tested 30000 nM; read-out: NCI-H1650 GI50 (high PARG dependency)

Reference set, count: 3
| MOLECULE | QUANTITY | EXPERIMENTAL VALUE |
| --- | --- | --- |
| CO/N=c1\[nH]c2c(N3CCN(C(=O)N4CCCC4)[C@H](C)C3)cc(S(=O)(=O)NC3(C)CC3)cc2c(=O)n1Cc1cnn(C)c1 | GI50 | < 500 nM |
| CO/N=c1\[nH]c2ccc(S(=O)(=O)NC3(C)COC3)cc2c(=O)n1Cc1cnn(C)c1 | GI50 | 500 to 2000 nM |
| CO/N=c1\[nH]c2c(C3CCN[C@H](C)C3)cc(S(=O)(=O)NC3(C)CC3)cc2c(=O)n1Cc1cnn(C)c1 (some centres unmarked) | GI50 | > 2000 nM |

Please indicate GI50 recorded for CON=c1[nH]c2ccc(S(=O)(=O)NC3(C#N)CC3)cc2c(=O)n1Cc1cnn(C)c1 > 2000 nM

Fill in GI50 for record CO/N=c1\[nH]c2c(N3CCN(C(=O)CC(F)(F)F)[C@H](C)C3)cc(S(=O)(=O)NC3(C)CC3)cc2c(=O)n1Cc1cnn(C)c1 < 500 nM

Identify the reported GI50 for the following entry. CO/N=c1\[nH]c2c(-c3ccc(C(=O)N(C)C)cc3)cc(S(=O)(=O)NC3(C)CC3)cc2c(=O)n1Cc1cnn(C)c1 > 2000 nM

Give GI50 for the following molecule: CO/N=c1\[nH]c2c(N3CCN(C(=O)C4(N(C)C)CC4)[C@H](C)C3)cc(S(=O)(=O)NC3(C)CC3)cc2c(=O)n1Cc1cnn(C)c1 < 500 nM

Please give the documented GI50 of CO/N=c1\[nH]c2c(-c3cnc(C(=O)N(C)C)[nH]3)cc(S(=O)(=O)NC3(C)CC3)cc2c(=O)n1Cc1cnn(C)c1 500 to 2000 nM

Item CO/N=c1\[nH]c2c(N3CCN(C)[C@H](C)C3)cc(S(=O)(=O)NC3(C)CC3)cc2c(=O)n1Cc1cnn(C)c1 : provide GI50 500 to 2000 nM

Report measured GI50; entry is CO/N=c1\[nH]c2c(Cl)cc(S(=O)(=O)NC3(C)CC3)cc2c(=O)n1Cc1cnn(C)c1 > 2000 nM

Annotate the molecule CO/N=c1\[nH]c2c(N3CCN(C(C)=O)[C@H](C)C3)cc(S(=O)(=O)NC3(C)CC3)cc2c(=O)n1Cc1cnn(C)c1 with its measured GI50. < 500 nM

For the molecule CO/N=c1\[nH]c2c(N3CCN(C(=O)C4(C(F)(F)F)CC4)[C@H](C)C3)cc(S(=O)(=O)NC3(C)CC3)cc2c(=O)n1Cc1cnn(C)c1 , report GI50. < 500 nM

Output GI50 of CO/N=c1\[nH]c2ccc(S(=O)(=O)NC3(C)CC3)cc2c(=O)n1Cc1cnc(C)s1 500 to 2000 nM

Give the reported value of GI50 for this record: CO/N=c1\[nH]c2c(N3CCN(C(=O)C(C)C)[C@H](C)C3)cc(S(=O)(=O)NC3(C)CC3)cc2c(=O)n1Cc1cnn(C)c1 < 500 nM
